# credit: the Deep4Chem optical property database

Assay remarks: solvent given as SMILES
Condition details: in CCOC(C)=O
Exercise: for every item that follows, state its recorded absorption maximum.

Entry COc1nc(Cl)nc(Nc2ccc3c4c(cccc24)C(=O)c2ccccc2-3)n1 — recorded absorption maximum = 411.02 nm

Entry CN(C)c1cccc2c1ccc1c(=O)oc(-c3ccc(C(F)(F)F)cc3)cc12 — recorded absorption maximum = 393 nm

Entry COc1cc(N(c2ccccc2)c2ccc(C=C(C#N)C#N)c(OC)c2)ccc1C=C(C#N)C#N — recorded absorption maximum = 468 nm

Entry CCN1CCN(c2ccc(/N=N/c3cc(C(=O)OC)cc(C(=O)OC)c3)cc2)CC1 — recorded absorption maximum = 416 nm

Entry O=C1OC(c2ccccc2)=N/C1=C\c1ccc(N(c2ccc(/C=C3\N=C(c4ccccc4)OC3=O)cc2)c2ccc(/C=C3/N=C(c4ccccc4)OC3=O)cc2)cc1 — recorded absorption maximum = 496 nm

Entry CCCCCCCCCCCCCCCCCCN1C(=O)c2cccc3c(OCCN(C)C)ccc(c23)C1=O — recorded absorption maximum = 363 nm

Entry CCn1c(-c2ccc(-c3ccc4ccc5cccc6ccc3c4c56)cc2)c(-c2ccc3ccccc3c2)c(-c2ccc3ccccc3c2)c1-c1ccc(-c2ccc3ccc4cccc5ccc2c3c45)cc1 — recorded absorption maximum = 344 nm

Entry COc1ccc(/C=C/C2=[O+][B-](F)(F)OC(/C=C/c3ccc(OC)c4ccccc34)=C2c2ccccc2)c2ccccc12 — recorded absorption maximum = 542 nm

Entry COc1cc(Br)cc2cc(-c3cc4cc(Br)cc(OC)c4oc3=O)oc12 — recorded absorption maximum = 355 nm

Entry O=C1/C(=C/C=C/c2cc3c4c(c2)CCCN4CCC3)CC/C1=C\C=C\c1cc2c3c(c1)CCCN3CCC2 — recorded absorption maximum = 495 nm

Entry CN(C)c1ccc(C2=Cc3ccc4ccccc4[n+]3[B-](F)(F)O2)cc1 — recorded absorption maximum = 468 nm

Entry Cc1ccc2occ(CC(=O)NN)c2c1 — recorded absorption maximum = 296 nm

Entry CCn1c2ccccc2c2cc(-c3cc(-c4ccc5c(c4)c4ccccc4n5CC)ncn3)ccc21 — recorded absorption maximum = 359 nm

Entry Cc1cnc(NC(=O)C2=C(O)c3ccccc3S(=O)(=O)N2C)s1 — recorded absorption maximum = 343 nm

Entry Nc1ccc2c(c1)C(=O)c1ccc(N)cc1C2=O — recorded absorption maximum = 433.4 nm

Entry CC(C)(C)c1cc2ccc3cc(C(C)(C)C)cc4c3c2c(c1)c(=O)n1c4nc2c3cc(C(C)(C)C)cc4ccc5cc(C(C)(C)C)cc(c5c43)c21 — recorded absorption maximum = 393 nm

Entry c1ccc(Nc2nc(Nc3ccccc3)nc(Nc3ccc4c5cccc6cccc(c7cccc3c74)c65)n2)cc1 — recorded absorption maximum = 443 nm

Entry COc1ccccc1C1=C2C(C)=CC(C)=[N+]2[B-](F)(F)n2c(C)cc(C)c21 — recorded absorption maximum = 502 nm

----------
Assay remarks: solvent given as SMILES
Condition details: in OCCO
Assay readout: absorption maximum (nm)
The reply should be a number in nm, with the unit left off.

Entry O=C(O)c1c2ccccc2nc2ccccc12 — recorded absorption maximum = 356

Entry O=c1oc2ccccc2cc1-c1nc2ccccc2o1 — recorded absorption maximum = 354

Entry COc1c2ccccc2c(-c2ccccc2)c2ccccc12 — recorded absorption maximum = 379

Entry O=C1NC(=O)/C(=C\c2ccccc2O)S1 — recorded absorption maximum = 360

Entry Cc1ccc(/C=N/c2cc(C(C)C)c(O)cc2C)cc1 — recorded absorption maximum = 344

Entry CCC(=O)c1ccc2cc(N(C)C)ccc2c1 — recorded absorption maximum = 375

Entry O=C(O)C1=CC(=C/C=[N+]2/c3cc(O)c(C[C@@H]4O[C@H](CO)[C@@H](O)C(O)[C@H]4O)cc3C[C@H]2C(=O)O)C=C(C(=O)O)N1 (some centres not stated) — recorded absorption maximum = 476
